Values were extracted from ChEMBL document CHEMBL1201862.

molecular target: Carboxy-terminal domain RNA polymerase II polypeptide A small phosphatase 1 (Homo sapiens); experiment: inhibitors of CTDSP1, concentration-response testing, biochemical assay, absorbance-based, actives from ultra-high-throughput screening (AID 540297); format: functional
Sequence (Q9GZU7 whole entry, the tested form may be a part): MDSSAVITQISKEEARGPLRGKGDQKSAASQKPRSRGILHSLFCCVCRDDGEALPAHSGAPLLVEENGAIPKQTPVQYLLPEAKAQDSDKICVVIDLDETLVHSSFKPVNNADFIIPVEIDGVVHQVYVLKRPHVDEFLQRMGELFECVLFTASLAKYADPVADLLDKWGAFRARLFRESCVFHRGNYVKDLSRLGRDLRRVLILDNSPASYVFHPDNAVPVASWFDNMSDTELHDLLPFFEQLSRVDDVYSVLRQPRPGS
The source made the active and inactive calls. Rule as the data show it: actives have a measured IC50 and inactives only a lower limit.
# key: entry, value: IC50

Worked examples, 3 compounds total:
compound: O=C(N/N=C/c1ccc(Cl)cc1)c1ccc2c(c1)OCO2
IC50: 6.93 µM (active)
--
compound: O=C(O)COc1ccccc1/C=C1\SC(=S)N(/N=C/c2ccccc2O)C1=O
IC50: 8.53 µM (active)
--
compound: O=C(N/N=C/c1cccnc1)c1ccc(NC(=O)c2cccc(Cl)c2)cc1
IC50: 7.91 µM (active)

Moving on to the next compound.
Query: Recorded IC50 of `COc1ccc2c(c1)[N+](C)(C)C(C)(C)C=C2C` , please.
Response: 3.14 µM (active)
